Study System: Aedes aegypti neuropeptide Y-like receptor 7 (NPYLR7)
Assay: agonists of mosquito NPYLR7 receptor, confirmation, cell-based, Aedes aegypti, hit validation, mosquito biting behavior (AID 1259427);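 also: potency of agonists that activate the receptor and raise the calcium signal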
Condition Parameters: HEK293T NPYLR7/Galpha15/GCaMP6s, calcium fluorescence
Active and inactive are the calls of the source.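 The calls were made as follows: active = EC50 at or below a set limit, with no effect in the paired counter-screen assay; inactive = the rest.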
Answer with one of the outcomes true = active, false = inactive

Query block: Per the assay record, what outcome was assigned to Cc1cc(O)c(CN2CCCC2)c2c1C(=O)/C(=C/c1cc3ccccc3o1)O2 ?
Result block: false

Query block: Also need O=C(COc1ccccc1)N1CCCC(CNS(=O)(=O)c2cccs2)C1 (stereo not drawn) , thanks.
Result block: true

Query block: Also need O=c1[nH]c(SCCO)nc2sc3c(c12)CCCC3 , thanks.
Result block: false

Query block: Also need CCOC(=O)c1nc2ccccc2nc1N1CCN(C(=O)N2CCOCC2)CC1 , thanks.
Result block: false

Query block: Also need CC(=O)NCCc1ccc(O)c(O)c1 , thanks.
Result block: false

Query block: Also need COc1ccc(NC(=O)C2C=CCN2)cc1NC(=O)c1ccco1 (stereo not drawn) , thanks.
Result block: false

Query block: Also need CC(C)Nc1ccc(NS(=O)(=O)NCc2ccccc2)cn1 , thanks.
Result block: false

Query block: Also need COc1cccc(CN2C(=O)c3cccc(N)c3C2=O)c1 , thanks.
Result block: false

Query block: Also need Cc1cc(C=C2Sc3ccccc3N2C)cc(C)[n+]1-c1ccccc1 , thanks.
Result block: false

Query block: Also need COc1ccc(N2C(=O)/C(=C\c3ccc[nH]3)N(C)C2=S)c([N+](=O)[O-])c1 , thanks.
Result block: false

Query block: Also need O=C1C(=Cc2ccc(OC(F)F)cc2OC(F)F)Oc2cc(O)ccc21 , thanks.
Result block: false

Query block: Also need CCOC(=O)N1CCN(c2ccc(/C=C(\C#N)c3nc4ccccc4[nH]3)o2)CC1 , thanks.
Result block: false

Query block: Also need CC1=CC(C)C(C(=O)O)C(C(=O)O)C1 (stereo not drawn) , thanks.
Result block: false

Query block: Also need CN1C(=S)N(CCCN2CCOCC2)C(=O)/C1=C/c1ccc(N(C)C)cc1 , thanks.
Result block: false

Query block: Also need CCN1CCN(C(=O)c2ccc(Cn3ccsc3=NC(=O)c3ccc(OC)c(OC)c3)o2)CC1 , thanks.
Result block: true

Query block: Also need Cc1ccc(CN(C(=O)c2cc3cc(Cl)ccc3[nH]2)C(C)C)o1 , thanks.
Result block: false

Query block: Also need COc1ccc(-c2cnn(CCC(N)=O)c2)c(C)c1 , thanks.
Result block: false

Query block: Also need CCCN1CCc2c(sc3c2c(NC(CC)CO)nc2nnnn23)C1 (stereo not drawn) , thanks.
Result block: false

Query block: Also need CC(C)c1nc(NC(=O)c2[nH]ncc2Br)n(C)n1 , thanks.
Result block: false

Query block: Also need N#C/C(=C/c1ccc(N2CCCCCC2)o1)c1ccc(F)cc1 , thanks.
Result block: false

Query block: Also need COc1cc(C=C2SC(=S)NC2=O)cc(Br)c1O , thanks.
Result block: false

Query block: Also need N#C/C(=C\c1ccc(O)c(O)c1)C(=O)NCc1ccccc1 , thanks.
Result block: false

Query block: Also need Cc1cc(C)c2cc3c(cc2n1)CCN3CC(O)CO (stereo not drawn) , thanks.
Result block: false
